tested on: EKVX NSCLC; experiment: NCI-60 one-dose screen, 48 h (100 = growth as untreated, 0 = no growth, -100 = all killed); conditions: 10 µM unless noted
The panel holds about 83,000 compounds, 20% with a hit somewhere; the sample as a whole holds those more often.
Observed Property: growth (%)

{"Molecule": "COc1cc2c(c(OC)c1OC)CCC(c1cccc(C(=O)Nc3ccccc3Br)c1)O2 (centres undefined)", "Observed Property": "growth", "Unit Label": "%", "Reported Value": 90.1}
{"Molecule": "CNC(=O)c1cc(Oc2ccc3nc(NC(=O)Nc4ccc(F)cc4F)sc3c2)ccn1", "Observed Property": "growth", "Unit Label": "%", "Reported Value": 89.8}
{"Molecule": "CCCCC/C=C/CCC(=O)N[C@H]1[C@H](Oc2c3cc4cc2Oc2ccc(cc2Cl)[C@@H](O[C@@H]2O[C@H](CO)[C@@H](O)[C@H](O)[C@H]2NC(C)=O)[C@@H]2NC(=O)[C@H](NC(=O)[C@@H]4NC(=O)[C@H]4NC(=O)[C@@H](Cc5ccc(c(Cl)c5)O3)NC(=O)[C@@H](N)c3ccc(O)c(c3)Oc3cc(O)cc4c3)c3ccc(O)c(c3)-c3c(O[C@H]4O[C@H](CO)[C@@H](O)[C@H](O)[C@@H]4O)cc(O)cc3[C@H](C(=O)O)NC2=O)O[C@H](CO)[C@H](O)[C@@H]1O", "Observed Property": "growth", "Unit Label": "%", "Reported Value": 96.4}
{"Molecule": "CC(=O)OCC(=O)O[C@@H]1C[C@]2(C(C)C)O[C@@]1(C)[C@@H]1CC[C@@H](C)[C@H]1[C@@H]2OC(=O)/C=C/c1ccccc1", "Observed Property": "growth", "Unit Label": "%", "Reported Value": 68.9}

----------
test system: SK-MEL-28 melanoma; assay: NCI-60 one-dose screen, 48 h; details: 10 µM unless noted
Compounds without any hit were thinned out: in the full panel of roughly 83,000, 20% have a hit. The source made the active and inactive calls. How the source made its calls: active means growth percent below 10; inactive means the rest.
Classes used: active, inactive

{"Compound": "COc1ccc(C2=NN3C(C2)c2cc(Br)ccc2OC3c2ccncc2)cc1 (stereo not drawn)", "Experimental System": "SK-MEL-28 melanoma", "Cat": "inactive"}
{"Compound": "COc1cc2cc(Oc3ccc(NC(=O)Nc4ccc(Cl)c(Cl)c4)cc3)c(C)nc2cc1OCCN1CCCCC1", "Experimental System": "SK-MEL-28 melanoma", "Cat": "inactive"}
{"Compound": "C#Cc1cccc(Nc2nc(Cl)nc3cc(NC(=O)CCl)ccc23)c1", "Experimental System": "SK-MEL-28 melanoma", "Cat": "active"}
{"Compound": "CN1CCN(Cc2ccc(NC(=O)c3cncc(C#Cc4c(N)ncc5ccccc45)c3)cc2C(F)(F)F)CC1", "Experimental System": "SK-MEL-28 melanoma", "Cat": "active"}
{"Compound": "COc1ccc(-c2ccc(-c3ccc(C(=N)N)nc3)s2)cc1", "Experimental System": "SK-MEL-28 melanoma", "Cat": "inactive"}
{"Compound": "COc1cccc(/C=C2\\CCc3ccccc3C2=O)c1", "Experimental System": "SK-MEL-28 melanoma", "Cat": "inactive"}
{"Compound": "O=C(Nc1ccc2c(c1)-c1ccccc1C2)C1CC(=O)N(c2ccc3c(c2)OCO3)C1 (stereo not drawn)", "Experimental System": "SK-MEL-28 melanoma", "Cat": "inactive"}
{"Compound": "CCOC(=O)c1c(Nc2nc3ccccc3s2)sc2c1CCC(=O)C2", "Experimental System": "SK-MEL-28 melanoma", "Cat": "inactive"}
{"Compound": "CNC(=O)c1cc(Oc2ccc3nc(NC(=O)NC(C)C)sc3c2)ccn1", "Experimental System": "SK-MEL-28 melanoma", "Cat": "inactive"}
{"Compound": "CN1CCN(Cc2ccc(NC(=O)c3cncc(C#Cc4cnc(N)c5ccc(C#N)cc45)c3)cc2C(F)(F)F)CC1", "Experimental System": "SK-MEL-28 melanoma", "Cat": "active"}
{"Compound": "C=C(CNCCO)[C@@H]1CC[C@]2(CO)CC[C@]3(C)[C@H](CC[C@@H]4[C@@]5(C)CCC(NCCO)C(C)(C)[C@@H]5CC[C@]43C)[C@@H]12 (stereo partly drawn)", "Experimental System": "SK-MEL-28 melanoma", "Cat": "inactive"}
{"Compound": "Cn1ccnc1C(=O)/C=C/c1ccc(CC(=O)Nc2cc(F)c(F)c(F)c2)cc1", "Experimental System": "SK-MEL-28 melanoma", "Cat": "inactive"}
{"Compound": "Nc1ncc(-c2ccc3ncnc(N4CCc5cc(F)c(Cl)cc54)c3c2)cn1", "Experimental System": "SK-MEL-28 melanoma", "Cat": "inactive"}
{"Compound": "O=C(Nc1ccccc1C(F)(F)F)C1=NCCCCN1", "Experimental System": "SK-MEL-28 melanoma", "Cat": "inactive"}
{"Compound": "N#C/C(Sc1nc2sc3c(c2c(=O)n1Cc1ccccc1)CCCC3)=C1/SC=C(c2ccc(Cl)cc2)N1c1ccccc1", "Experimental System": "SK-MEL-28 melanoma", "Cat": "inactive"}
{"Compound": "[2H]C([2H])([2H])Oc1ccc(/C=C/C(=O)/C=C(/C=C/c2ccc(OC([2H])([2H])[2H])c(OC([2H])([2H])[2H])c2OC([2H])([2H])[2H])OB(F)F)c(OC([2H])([2H])[2H])c1OC([2H])([2H])[2H]", "Experimental System": "SK-MEL-28 melanoma", "Cat": "inactive"}
{"Compound": "Cc1c(C(=O)C(SC(=S)N2CCOCC2)SC(=S)N2CCOCC2)nnn1-c1ccc([N+](=O)[O-])cc1", "Experimental System": "SK-MEL-28 melanoma", "Cat": "inactive"}
{"Compound": "Cn1ncc(CC(=O)O)c1-n1nnc2cc(Cl)ccc2c1=O", "Experimental System": "SK-MEL-28 melanoma", "Cat": "inactive"}
